assay system: peroxisome proliferator-activated receptor α (PPARα) (Homo sapiens)
Sequence (Q07869 200-468): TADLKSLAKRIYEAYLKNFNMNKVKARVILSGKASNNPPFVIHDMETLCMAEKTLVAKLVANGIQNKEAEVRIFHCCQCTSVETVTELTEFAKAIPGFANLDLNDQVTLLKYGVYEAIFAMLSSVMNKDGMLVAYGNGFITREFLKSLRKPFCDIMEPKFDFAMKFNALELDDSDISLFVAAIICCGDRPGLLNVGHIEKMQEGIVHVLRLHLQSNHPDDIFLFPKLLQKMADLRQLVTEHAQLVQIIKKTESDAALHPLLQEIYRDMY
assay comment: microscale thermophoresis with purified recombinant EGFP-PPARα LBD
quantity measured: Kd

Could you share what Kd was measured for Cc1cccc2c3c(ccc12)C1=C(C(=O)C3=O)[C@@H](C)CO1 [DhT, dihydrotanshinone I] , tested on peroxisome proliferator-activated receptor α (PPARα) (Homo sapiens)? 1660 nM

====

assay system: peroxisome proliferator-activated receptor α (PPARα) (Homo sapiens, UniProt Q07869, T283A)
assay comment: microscale thermophoresis with purified recombinant EGFP-PPARα LBD T283A
quantity measured: pKd
// returns pKd (minus log10 of molar concentration), number only

I would be grateful if you could share the reported pKd for Cc1cccc2c3c(ccc12)C1=C(C(=O)C3=O)[C@@H](C)CO1 [DhT, dihydrotanshinone I] . 4.48
